Molecular target: UniProtKB P81908
Assay: BChE inhibition, modified Ellman method
Assay type: biochemical, equine
Conditions: 0.25 h, read-out: Inhibition ratios for BChE
metric.name: inhibition at 50 µM
Quote the value and follow it with the unit of measurement.

# per-item lookup of inhibition at 50 µM; items listed below
1. Cl.NCCCNCCCNC(=O)COc1cc(O)c2c(=O)c(-c3ccc(O)cc3)coc2c1
2. Cl.NCCCCNC(=O)COc1cc(O)c2c(=O)c(-c3ccc(O)cc3)coc2c1
3. Cl.NCCCNC(=O)COc1cc(O)c2c(=O)c(-c3ccc(O)cc3)coc2c1
4. CN(C)CCNC(=O)COc1cc(O)c2c(=O)c(-c3ccc(O)cc3)coc2c1.Cl
5. Cl.O=C(COc1cc(O)c2c(=O)c(-c3ccc(O)cc3)coc2c1)NCCCCN1CCNCC1
6. Cl.NCCCNCCCCNC(=O)COc1cc(O)c2c(=O)c(-c3ccc(O)cc3)coc2c1

Reply |
1: 9.52%; 2: 9.02%; 3: 13.8%; 4: 26.1%; 5: 11.7%; 6: 17.9%

# per-item lookup of inhibition at 50 µM; items listed below
1. CCCCNC(=O)COc1cc(O)c2c(=O)c(-c3ccc(O)cc3)coc2c1
2. Cl.NCCCCNCCCCNC(=O)COc1cc(O)c2c(=O)c(-c3ccc(O)cc3)coc2c1

Reply |
1: 1.19%; 2: 39.2%

* * *

System: HepG-2 cells
Assay: MTT assay of HepG-2 cell viability
Format: cell-based, human
Conditions: 10 μmol/L compound, 48 h; mean of three independent experiments
metric.name: Inhibition ratios for HepG-2 cell viability (%)
One number for each entry, in %.

compound	result.number
Cl.NCCCNCCCNC(=O)COc1cc(O)c2c(=O)c(-c3ccc(O)cc3)coc2c1	11.74
CCCCNC(=O)COc1cc(O)c2c(=O)c(-c3ccc(O)cc3)coc2c1	6.40
Cl.O=C(COc1cc(O)c2c(=O)c(-c3ccc(O)cc3)coc2c1)NCCCCN1CCNCC1	8.51

# per-item lookup of Inhibition ratios for HepG-2 cell viability; items listed below
1. Cl.NCCCNC(=O)COc1cc(O)c2c(=O)c(-c3ccc(O)cc3)coc2c1
2. Cl.NCCCCNC(=O)COc1cc(O)c2c(=O)c(-c3ccc(O)cc3)coc2c1
3. CN(C)CCNC(=O)COc1cc(O)c2c(=O)c(-c3ccc(O)cc3)coc2c1.Cl
4. Nc1c2c(nc3ccccc13)CCCC2 [Tacrine, reference compound]
5. Cl.NCCCCNCCCCNC(=O)COc1cc(O)c2c(=O)c(-c3ccc(O)cc3)coc2c1
6. Cl.NCCCNCCCCNC(=O)COc1cc(O)c2c(=O)c(-c3ccc(O)cc3)coc2c1

Reply |
[14.57, 1.17, 1.53, 57.35, 16.30, 16.72]

* * *

Biological target: BChE (Equus caballus, UniProt P81908)
Sequence (P81908 whole entry): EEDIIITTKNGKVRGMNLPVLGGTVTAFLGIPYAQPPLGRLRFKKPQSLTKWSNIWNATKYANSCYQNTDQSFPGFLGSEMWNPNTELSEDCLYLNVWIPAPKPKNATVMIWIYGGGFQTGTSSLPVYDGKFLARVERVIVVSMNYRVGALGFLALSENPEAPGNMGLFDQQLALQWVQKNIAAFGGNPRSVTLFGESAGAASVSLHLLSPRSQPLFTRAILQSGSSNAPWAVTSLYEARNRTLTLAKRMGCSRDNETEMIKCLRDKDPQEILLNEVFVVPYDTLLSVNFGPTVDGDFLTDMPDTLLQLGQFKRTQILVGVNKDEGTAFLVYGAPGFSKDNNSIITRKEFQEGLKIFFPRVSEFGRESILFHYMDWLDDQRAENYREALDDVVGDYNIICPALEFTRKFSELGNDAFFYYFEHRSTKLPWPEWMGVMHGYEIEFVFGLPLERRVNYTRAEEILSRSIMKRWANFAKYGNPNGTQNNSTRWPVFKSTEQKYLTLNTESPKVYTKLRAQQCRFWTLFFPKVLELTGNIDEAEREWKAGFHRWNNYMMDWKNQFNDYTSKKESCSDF
pIC50: −log10 of the molar value.
I'd appreciate it if you could supply pIC50 values for the items below.

compound	pIC50
CN(C)CCNC(=O)COc1cc(O)c2c(=O)c(-c3ccc(O)cc3)coc2c1.Cl [Compound 4b]	< 4.30
Cl.NCCCCNCCCCNC(=O)COc1cc(O)c2c(=O)c(-c3ccc(O)cc3)coc2c1 [Compound 4h]	< 4.30

Looking up O=c1c(-c2ccc(O)cc2)coc2cc(O)cc(O)c12 [Genistein, reference compound] , I see its pIC50 listed as < 4.00
